Hey, just so you know, these numbers are from PubChem BioAssay (NCI).

test system: UO-31 renal; assay: NCI-60 one-dose screen, 48 h (100 = growth as untreated, 0 = no growth, -100 = all killed); details: 10 µM unless noted
About 83,000 compounds went through this panel and 20% of them were active in at least one assay; those are over-represented in the sample as a whole.
growth values for the compounds below.
Give the quantity in %, number only.

Some compounds with recorded growth:
INSERT INTO results (compound, assayendpoint, quantitativeresult) VALUES
  ('O=C(N/N=C/c1ccc(O)c(O)c1)c1sc2ccccc2c1Cl', 'growth', 61),
  ('FC(F)(F)c1cccc(Oc2ccc(Nc3ncnc4ccc(OCCCN5CCOCC5)cc34)cc2Cl)c1', 'growth', 21.6),
  ('CC1=CC[C@@H]2CC[C@]3(C)[C@H](CC[C@@H]4[C@@]5(C)CCCNC(C)(C)[C@@H]5CC[C@]43C)[C@H]2[C@@H]1C', 'growth', 55.7),
  ('NS(=O)(=O)c1cccc(NC(=O)C(=O)C2C(=O)Nc3ccccc32)c1 (centres undefined)', 'growth', 67.2),
  ('O=S(=O)(NCCNc1nccc(-c2c(-c3ccc(F)c(O)c3)nc3occn23)n1)c1ccccc1', 'growth', 35.2),
  ('COc1cccc2c1C(=O)c1c(O)c3c(c(O)c1C2=O)C[C@@](O)(C(=O)CO)C[C@@H]3O[C@H]1C[C@H](N)[C@@H](O)[C@H](C)O1', 'growth', 11.8);

Input COc1ccc(OC)c(/C=C/[C@H]2O[C@@H](C)[C@H](O)[C@@H]2O)c1 . Output growth: 91.5

Input CN(C)C(=O)OCc1nc2c(N3CCOCC3)nc(-c3ccccc3)nc2n1C . Output growth: -100

Input COc1ccncc1C#Cc1cncc(C(=O)Nc2ccc(CN3CCN(C)CC3)c(C(F)(F)F)c2)c1 . Output growth: 11.7

====

tested on: NCI-H23 lung; assay: NCI-60 one-dose screen, 48 h; settings: 10 µM unless noted
About 83,000 compounds went through this panel and 20% of them were active in at least one assay; those are over-represented in the sample as a whole. Active and inactive are the calls of the source. Rule for the calls: active = growth percent below 10; inactive = the rest.
Choose one outcome from this list and give only that: active, inactive

Record excerpt, results attached:
INSERT INTO measurements (compound, labelclass) VALUES
  ('Cc1ccc(C2C3CC4CCCCC4N3[C@@]3(C(=O)Nc4cc(Cl)ccc43)C2C(=O)c2nc3ccccc3[nH]2)cc1 (stereo not given in full)', 'inactive'),
  ('O=S(=O)(NCCCNc1nccc(-c2c(-c3ccc(F)c(O)c3)nc3sccn23)n1)c1ccc(F)cc1', 'active'),
  ('CC(C)Cc1ccc(C(C)C(=O)NCc2c[nH]c3ccc(Cl)cc23)cc1 (stereo not given)', 'inactive'),
  ('CCN1C(=O)N(CC)C2NC(SC)=NC21 (stereo not given)', 'inactive');

Request: # outcome recorded in this test, key = COc1cc(/C=C/C(=O)c2ccc(Nc3ncnc4ccccc34)cc2)cc(OC)c1
Result: inactive

====

test system: HS 578T breast; assay: NCI-60 one-dose screen, 48 h (100 = growth as untreated, 0 = no growth, -100 = all killed); conditions: 10 µM unless noted
The panel holds about 83,000 compounds, 20% with a hit somewhere; the sample as a whole holds those more often.
Would you please tag the item Satisfied when its growth is 90% or above, and Not satisfied when it is below?

Record excerpt, results attached:
INSERT INTO assay_data (smilesrepresentation, labelclass) VALUES
  ('COc1cccc(NC(=O)c2cccc(-c3cc(=O)c4c(OC)c(OC)c(OC)cc4o3)c2)c1', 'Not satisfied'),
  ('COc1cc(/C=N/NC(=O)c2ccccc2Nc2cccc(C(F)(F)F)c2)ccc1O', 'Satisfied'),
  ('[2H]C1([2H])NC([2H])([2H])C([2H])([2H])N(c2ccc(Nc3ncc4cc(C(=O)N(C)C)n(C5CCCC5)c4n3)nc2)C1([2H])[2H]', 'Not satisfied');

Request: Evaluate Cn1/c(=N/NC(N)=S)ccc2ccccc21 : growth at minimum 90%?
Result: Satisfied

Request: Evaluate C=CCn1c(SCC(=O)Nc2ccc(C(=O)/C=C/c3cc(OC)c(OC)c(OC)c3)cc2)nnc1-c1cc(-c2ccc(S(C)(=O)=O)cc2)nc2ccccc12 : growth at minimum 90%?
Result: Satisfied

Request: Evaluate CN(C)C(=O)OCc1nc2c(N3CCOCC3)nc(-c3ccccc3)nc2n1C : growth at minimum 90%?
Result: Not satisfied

Request: Evaluate NC(=S)N/N=C/c1ccc(OC(=O)COc2cc(Cl)c(Cl)cc2Cl)cn1 : growth at minimum 90%?
Result: Satisfied

====

test system: SK-MEL-2 melanoma; experiment: NCI-60 one-dose screen, 48 h (100 = growth as untreated, 0 = no growth, -100 = all killed); conditions: 10 µM unless noted
About 83,000 compounds went through this panel and 20% of them were active in at least one assay; those are over-represented in the sample as a whole.
# if measured growth < 90%: yes  # else: no

Record excerpt, results attached:
INSERT INTO measurements (molecule, labelclass) VALUES
  ('COc1cc2nc(-c3ccc(-c4nn[nH]n4)cc3)[nH]c(=O)c2cc1OC', 'no'),
  ('COc1ccc(C(=O)c2cc(C)c(OC)c(C)c2)c(OC)c1O', 'yes'),
  ('N/C(=N\N=C\c1cc2ccccc2s1)N/N=C/c1cc2ccccc2s1', 'no'),
  ('CC1(c2ccccc2)NC(=O)N(CC(=O)Nc2cccc(I)c2)C1=O (stereo not given)', 'yes'),
  ('CC1(C)[C@H](O)CC[C@]2(C)[C@@H]1CC[C@@]13C[C@@H](CC[C@H]12)[C@@](O)(CO)C3', 'no');

Request: Does the reported growth of CC(=O)Nc1ccc(S(=O)(=O)NC2CCCCC2)cc1 stay below 90%?
Result: no

Request: Does the reported growth of CCCCCCN(C)Cc1ccc(OCCOc2ccc(CN(C)CCCCCC)cc2)cc1 stay below 90%?
Result: yes

Request: Does the reported growth of COc1ccc(/C=C/C(=O)c2ccc(Nc3ncnc4ccccc34)cc2)cc1OC stay below 90%?
Result: no

====

test system: K-562 leukemia; assay: NCI-60 one-dose screen, 48 h (100 = growth as untreated, 0 = no growth, -100 = all killed); conditions: 10 µM unless noted
This is part of a sample that, as a whole, favours compounds with a hit. Of some 83,000 tested, about 20% had one in any assay. Active and inactive are the calls of the source. The calls were made as follows: active = growth percent below 10; inactive = the rest.
growth values for the compounds below.

Some compounds with recorded growth:
INSERT INTO results (compound, targetundertest, result) VALUES
  ('O=C1Nc2c(ccc(Cl)c2Cl)/C1=C/c1ccc([N+](=O)[O-])cc1', 'K-562 leukemia', '89.5% (inactive)'),
  ('CS(=O)(=O)Nc1cc(-c2ccc3ncnc(Nc4ccc5[nH]ncc5c4)c3c2)cnc1Cl', 'K-562 leukemia', '90.1% (inactive)'),
  ('COc1cccc(NC(=O)c2cccc(-c3cc(=O)c4c(OC)c(OC)c(OC)cc4o3)c2)c1', 'K-562 leukemia', '40.3% (inactive)'),
  ('CC(C)(C)CC(C)(C)Nc1c(-c2ccc3c(c2)OCO3)nc2cnccn12', 'K-562 leukemia', '72% (inactive)'),
  ('CC1=NNC(=O)C1CCC(=O)N/N=C(\C)c1ccc2ccccc2c1 (centres undefined)', 'K-562 leukemia', '97.6% (inactive)'),
  ('COc1cccc(CCC(=O)c2cc3c(N)c(C(=O)Nc4cccc(Cl)c4C)sc3nc2C)c1', 'K-562 leukemia', '7.49% (active)'),
  ('CC1=CC2(C)/C=C(C)/C=C\CC(O)/C=C3/C=CC(=C4C(=O)OC2(CC1C)C4=O)OC3 (centres undefined)', 'K-562 leukemia', '2.75% (active)'),
  ('CCCCCCC/C=C/[C@H]1O[C@]2(O)C(=O)C=C3C[C@@H](O[C@@H]4O[C@H](CO)[C@@H](O)C(O)[C@@H]4O)C[C@@H]3[C@H]2C=C1C (some centres undefined)', 'K-562 leukemia', '-5.09% (active)');

Summary line: COc1ccc(C(O)c2cc3c(N)c(C(=O)Nc4ccc(Br)cc4)sc3nc2C)cc1 (centres undefined) , K-562 leukemia, reported growth = 3.49% (active)

Summary line: O=C1Nc2c(ccc(Cl)c2Cl)/C1=C/c1ccc(F)cc1 , K-562 leukemia, reported growth = 85% (inactive)

Summary line: COc1ccccc1Nc1cc(O)c2c(=O)cc(-c3ccccc3)oc2c1 , K-562 leukemia, reported growth = 11.6% (inactive)

Summary line: COC(=O)Nc1ccc(NC(=O)OC)cc1 , K-562 leukemia, reported growth = 103% (inactive)

Summary line: O=S(=O)(c1cccc(NC2=Nc3cccc4cccc2c34)c1)N1CCCC1 , K-562 leukemia, reported growth = 19.3% (inactive)

Summary line: Cc1c2c(cc[n+]1Cc1ccccc1)c1ccc(OCc3ccccc3)cc1n2Cc1ccccc1 , K-562 leukemia, reported growth = -25% (active)
